# Tested on: SR leukemia
# methodNotes: NCI-60 one-dose screen, 48 h (100 = growth as untreated, 0 = no growth, -100 = all killed)
# conditionInfo: 10 µM unless noted
This is part of a sample that, as a whole, favours compounds with a hit. Of some 83,000 tested, about 20% had one in any assay. Activity calls are given as the source filed them. The calls were made as follows: active = growth percent below 10; inactive = the rest.
measure: growth

I'd like to know its growth. The molecule in question is COc1cc2c(cc1OC)C(CC1(O)CCCCC1)N(S(=O)(=O)c1ccc(C)cc1)CC2 (centres undefined)
-10.4% [100 µM] (active)

I'd like to know its growth. The molecule in question is Cc1cnc2nc(-c3ccc(N(C)C)cc3)cn2c1
100% (inactive)

I'd like to know its growth. The molecule in question is CCN1CC2=C(Nc3nc(SC)[nH]c(=O)c3C2c2cc(OC)c(OC)c(OC)c2)/C(=C/c2cc(OC)c(OC)c(OC)c2)C1 (centres undefined)
82.5% (inactive)

I'd like to know its growth. The molecule in question is COc1cc2c(cc1OC)C(=O)/C(=C/c1cccc(OCC(=O)c3ccccc3)c1)C2
42.2% (inactive)

I'd like to know its growth. The molecule in question is CC1C(=O)NC2=Nc3ccccc3C(=O)NN21 (centres undefined)
91.3% (inactive)

I'd like to know its growth. The molecule in question is OCCCc1n(Cc2ccc3ccccc3c2)c2ccccc2[n+]1Cc1ccc2ccccc2c1
-30.9% (active)

I'd like to know its growth. The molecule in question is COc1ccc(C(=O)COc2cccc(/C=C3\CSc4ccc(Cl)cc4C3=O)c2)cc1
20% (inactive)

I'd like to know its growth. The molecule in question is COc1ccc2[nH]c(=O)c(CNc3ccc(Nc4nccc(-c5ccc(Cl)cc5)n4)cc3)cc2c1
54% (inactive)

I'd like to know its growth. The molecule in question is CC(C)OP(=O)(OC(C)C)c1ncc(-c2ccc(C(F)(F)F)cc2)c(NC2CCCCCC2)n1
-30.3% [33.3 µM] (active)

* * *

# System: OVCAR-3 ovarian
# methodNotes: NCI-60 one-dose screen, 48 h
# conditionInfo: 10 µM unless noted
Compounds without any hit were thinned out: in the full panel of roughly 83,000, 20% have a hit. Calls of active or inactive are those of the source. The calls were made as follows: active = growth percent below 10; inactive = the rest.
Please reply with one of these outcomes: class 1 for active, class 0 for inactive

Outcome logged for COc1cccc(-c2nc(-c3ccc(N)cc3)co2)c1 in this assay:
class 0

Outcome logged for CC(=O)O[C@H]1CC[C@@]2(C)C(=CC[C@@H]3[C@@H]2CC[C@]2(C)C(c4cccnc4)=CC[C@@H]32)C1 in this assay:
class 0

Outcome logged for COC(=O)[C@H](Cc1cn(C)cn1)NC(=O)[C@H](Cc1ccccc1)NC(=O)Nc1cc(C(F)(F)F)cc(C(F)(F)F)c1 in this assay:
class 1

Outcome logged for CCC(=O)Nc1cc2c(cc1Cl)-c1ccccc1C2 in this assay:
class 0

Outcome logged for CC(C)CC1NC(=O)C(CCCN)NC(=O)C(C(C)C)NC(=O)C2CCCN2C(=O)C(Cc2ccccc2)NC(=O)C(CC(C)C)NC(=O)C(CCCN)NC(=O)C(C(C)C)NC(=O)C2CCCN2C(=O)C(Cc2ccccc2)NC1=O (stereo not drawn) in this assay:
class 1

Outcome logged for N/C(=N\C(N)=N\c1nc2ccccc2s1)c1ccnc(Cl)c1 in this assay:
class 1

Outcome logged for O=c1c2ccccc2c2nccn2c2cc(Cl)ccc12 in this assay:
class 0

Outcome logged for O=C(O)CCC(=O)OC[C@@H](NC(=O)C(Cl)Cl)[C@H](O)c1ccc([N+](=O)[O-])cc1 in this assay:
class 0
